Property: IC50; scope: individual molecules
# Target Or Test System: CDK2/cyclin E1 (Homo sapiens, UniProt P24941)
# Protocol Notes: In vitro biochemical kinase activity assay for CDK2/cyclin E1 (HTRF)
# Condition Label: 1 µM ATP

The following molecules have reported results that may help.
Molecule | IC50
CC(C)n1c(C#Cc2nc(N[C@@H]3CCN(S(C)(=O)=O)C[C@H]3O)ncc2Cl)cnc1C(C)(C)O | 236 nM
CC(=O)c1ncc(C#Cc2nc(N[C@@H]3CCOC[C@H]3O)ncc2Cl)n1C(C)C [Example 1] | 3630 nM
CCN1CC2(C1)CN(c1ccc(Nc3ncc(F)c(C#Cc4cnn(C)c4C(C)C)n3)nc1)C2 | 617 nM
CC(C)n1c(C#Cc2nc(N[C@@H]3CCOC[C@H]3O)ncc2Cl)cnc1[C@H](C)O | 125 nM
CC(C)n1c(C#Cc2nc(Nc3ccc(C4CCN(C)CC4)cn3)ncc2Cl)cnc1C(C)(C)O | 2120 nM

Give IC50 (CDK2/cyclin E1 (Homo sapiens, UniProt P24941)) of the following molecule: "CC(C)n1c(C#Cc2nc(N[C@@H]3CCOC[C@H]3O)ncc2Cl)cnc1CN(C)C" 693 nM

Give IC50 (CDK2/cyclin E1 (Homo sapiens, UniProt P24941)) of the following molecule: "CC(C)n1c(C#Cc2nc(N[C@H]3CCOC[C@@H]3O)ncc2Cl)cnc1C(C)(C)O" 467 nM

Give IC50 (CDK2/cyclin E1 (Homo sapiens, UniProt P24941)) of the following molecule: "CC(C)n1c(C#Cc2cc(N[C@@H]3CCOC[C@H]3O)ncc2Cl)cnc1CN1CCC[C@H](O)C1" 3190 nM

Give IC50 (CDK2/cyclin E1 (Homo sapiens, UniProt P24941)) of the following molecule: "CC(C)n1c(C#Cc2nc(N[C@@H]3CCOC[C@H]3O)ncc2Cl)cnc1C(C)(C)O" 1320 nM

Give IC50 (CDK2/cyclin E1 (Homo sapiens, UniProt P24941)) of the following molecule: "CC(C)n1c(C#Cc2nc(N[C@@H]3COC[C@H]3O)ncc2Cl)cnc1C(C)(C)O" 493 nM

----------
# Target Or Test System: CDK6/cyclin D3 (Homo sapiens)
# Construct: purchased Carna
# Sequence (Q00534 whole entry, one chain of several): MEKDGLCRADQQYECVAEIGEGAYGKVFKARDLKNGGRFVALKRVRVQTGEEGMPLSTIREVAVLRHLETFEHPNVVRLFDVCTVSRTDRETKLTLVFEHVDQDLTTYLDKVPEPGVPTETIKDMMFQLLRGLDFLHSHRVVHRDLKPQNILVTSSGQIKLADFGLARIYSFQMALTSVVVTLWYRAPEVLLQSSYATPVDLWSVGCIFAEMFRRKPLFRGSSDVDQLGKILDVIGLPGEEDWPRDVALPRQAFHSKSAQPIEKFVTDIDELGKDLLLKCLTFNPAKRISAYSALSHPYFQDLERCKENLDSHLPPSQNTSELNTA
# Protocol Notes: In vitro biochemical kinase activity assay for CDK6/cyclin D3 (HTRF)
# Condition Label: data marked with *: 1 mM ATP in Step 1
Observed Property: pIC50
# pIC50 = -log10(concentration in molar units)

The following molecules have reported results that may help.
Molecule | Readout Value
CC(C)n1c(C#Cc2nc(Nc3ccc(N4CC5(CN(CC(F)(F)F)C5)C4)cn3)ncc2Cl)cnc1CN1CCC[C@H](O)C1 [Example 113] | 7.34
CC(C)n1c(C#Cc2nc(N[C@@H]3CCOC[C@H]3O)ncc2Cl)cnc1CN1CCC[C@H](F)C1 [Example 105] | 6.38
CC(=O)N1CC2(C1)CN(c1ccc(Nc3ncc(F)c(C#Cc4cnn(C)c4C(C)C)n3)nc1)C2 [Example 89] | 7.35

For the next question, use this molecule.
Record request: pIC50 value, item CCN1CCN(Cc2ccc(Nc3cc(C#Cc4cnc(C(C)(C)O)n4C(C)C)c(Cl)cn3)nc2)CC1 [Example 77] 8.23

----------
# Target Or Test System: CDK4/cyclin D3 (Homo sapiens, UniProt P11802)
# Construct: purchased Carna
# Sequence (P11802 whole entry): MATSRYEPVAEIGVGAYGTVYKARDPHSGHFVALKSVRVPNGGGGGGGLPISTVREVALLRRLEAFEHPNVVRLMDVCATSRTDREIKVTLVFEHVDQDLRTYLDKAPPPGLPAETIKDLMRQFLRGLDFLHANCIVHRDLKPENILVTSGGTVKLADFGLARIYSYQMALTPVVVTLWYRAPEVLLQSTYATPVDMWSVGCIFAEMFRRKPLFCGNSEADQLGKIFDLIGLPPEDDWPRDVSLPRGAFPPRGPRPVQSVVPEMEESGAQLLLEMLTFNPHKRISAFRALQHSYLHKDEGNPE
# Sequence (P30281 whole entry partner): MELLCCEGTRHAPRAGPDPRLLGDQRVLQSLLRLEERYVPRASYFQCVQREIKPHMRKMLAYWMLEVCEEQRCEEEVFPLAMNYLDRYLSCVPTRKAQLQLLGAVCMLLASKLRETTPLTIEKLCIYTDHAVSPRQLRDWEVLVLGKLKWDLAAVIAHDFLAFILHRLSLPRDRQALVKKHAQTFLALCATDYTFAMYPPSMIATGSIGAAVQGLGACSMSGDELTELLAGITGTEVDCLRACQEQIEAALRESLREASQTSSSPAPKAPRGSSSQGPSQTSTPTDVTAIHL
# Protocol Notes: In vitro biochemical kinase activity assay for CDK4/cyclin D3 (HTRF)
# Condition Label: unmarked data: 80 µM ATP in Step 1
Observed Property: pIC50
# pIC50 = -log10(concentration in molar units)

Molecule | pIC50
CC(C)n1c(C#Cc2nc(N[C@@H]3CCOC[C@H]3O)ncc2Cl)cnc1[C@H](C)O [Example 30] | 8.94
CC(C)(C)n1cncc1C#Cc1nc(N[C@@H]2CCOC[C@H]2O)ncc1Cl [Example 136] | 7.99
CC(C)c1c(C#Cc2nc(N[C@@H]3CCOC[C@H]3O)ncc2Cl)cnn1CC(C)(C)O [Example 64] | 7.88
CC(C)NCc1ncc(C#Cc2nc(N[C@@H]3CCOC[C@H]3O)ncc2Cl)n1C(C)C [Example 40] | 7.51

Record request: pIC50 value, item CC(C)n1c(C#Cc2nc(N[C@@H]3CCN(S(C)(=O)=O)C[C@H]3O)ncc2Cl)cnc1C(C)(C)O [Example 24] 9.25

Record request: pIC50 value, item CC(C)n1c(C#Cc2nc(N[C@@H]3COC[C@H]3O)ncc2Cl)cnc1C(C)(C)O [Example 53] 7.22

Record request: pIC50 value, item CCN1CCN(C(=O)c2ccc(Nc3ncc(Cl)c(C#Cc4cnc(C(C)(C)O)n4C(C)C)n3)nc2)CC1 [Example 67] 8.93

Record request: pIC50 value, item CC(C)n1c(C#Cc2nc(Nc3ccc(N4CCN(C)CC4)cn3)ncc2Cl)cnc1C(C)(C)O [Example 66] 8.99

Record request: pIC50 value, item CC(C)n1c(C#Cc2nc(N[C@@H]3CCOC[C@H]3O)ncc2Cl)cnc1[C@@H](C)O [Example 31] 8.11

Record request: pIC50 value, item CC(C)c1nn(C)cc1C#Cc1nc(N[C@@H]2CCOC[C@H]2O)ncc1Cl [Example 54] 7.23

Record request: pIC50 value, item CC(C)n1c(C#Cc2nc(N[C@@H]3CCOC[C@H]3C)ncc2Cl)cnc1C(C)(C)O [Example 86] 6.32

Record request: pIC50 value, item CC(C)c1nn(CC(C)(C)O)cc1C#Cc1nc(N[C@@H]2CCOC[C@H]2O)ncc1Cl [Example 65] 6.93

Record request: pIC50 value, item CC(C)c1c(C#Cc2nc(Nc3ccc(C4CCN(C)CC4)cn3)ncc2Cl)cnn1C [Example 57] 9.17
